Consider the following molecules; for each one, report its IC50.
# target system: Gonadotropin-releasing hormone receptor (Rattus norvegicus, UniProt P30969)
# Sequence (P30969 whole entry): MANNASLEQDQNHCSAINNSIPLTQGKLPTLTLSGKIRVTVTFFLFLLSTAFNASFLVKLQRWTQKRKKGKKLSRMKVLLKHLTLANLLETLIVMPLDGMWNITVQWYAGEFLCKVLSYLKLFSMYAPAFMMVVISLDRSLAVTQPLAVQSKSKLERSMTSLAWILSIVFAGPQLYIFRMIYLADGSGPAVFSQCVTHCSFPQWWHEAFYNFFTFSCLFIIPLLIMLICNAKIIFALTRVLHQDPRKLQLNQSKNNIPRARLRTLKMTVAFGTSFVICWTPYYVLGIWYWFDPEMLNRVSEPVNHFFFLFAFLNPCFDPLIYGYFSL
# assay overview: Antagonist activity at rat GnRHR expressed in HEK293 cells assessed as inhibition of GnRH-induced luciferase response by reporter gene assay
# Assay type: functional, cell-based

{"molecule": "CC(=O)Nc1ccc(C[C@H](NC(=O)[C@H](CO)NC(=O)[C@@H](Cc2cccnc2)NC(=O)[C@@H](Cc2ccc(Cl)cc2)NC(=O)[C@@H](Cc2ccc3ccccc3c2)NC(C)=O)C(=O)N[C@H](Cc2ccc(NC(C)=O)cc2)C(=O)N[C@H](C(=O)N[C@@H](CCCCNC(C)C)C(=O)N2CCC[C@H]2C(=O)N[C@H](C)C(N)=O)[S+]([O-])C(C)C)cc1 (stereo partly drawn)", "target system": "Gonadotropin-releasing hormone receptor (Rattus norvegicus, UniProt P30969)", "result": "3.2 nM (antagonist)"}
{"molecule": "CC(=O)Nc1ccc(C[C@H](NC(=O)[C@H](CO)NC(=O)[C@@H](Cc2cccnc2)NC(=O)[C@@H](Cc2ccc(Cl)cc2)NC(=O)[C@@H](Cc2ccc3ccccc3c2)NC(C)=O)C(=O)N[C@H](Cc2ccc(NC(C)=O)cc2)C(=O)N[C@@H](CC(C)C)C(=O)N[C@@H](CCCCNC(C)C)C(=O)N2CCC[C@H]2C(=O)N[C@H](C)C(N)=O)cc1 [ACYLINE]", "target system": "Gonadotropin-releasing hormone receptor (Rattus norvegicus, UniProt P30969)", "result": "1.5 nM (antagonist)"}

Next item in the queue.
Bench note: what IC50 did `CS[C@H](NC(=O)[C@@H]1CCCN1C(=O)[C@H](CCCCNC(C)C)NC(=O)[C@H](CC(C)C)NC(=O)[C@@H](Cc1ccc(NC(C)=O)cc1)NC(=O)[C@H](Cc1ccc(NC(C)=O)cc1)NC(=O)[C@H](CO)NC(=O)[C@@H](Cc1cccnc1)NC(=O)[C@@H](Cc1ccc(Cl)cc1)NC(=O)[C@@H](Cc1ccc2ccccc2c1)NC(C)=O)C(N)=O` show? 1.7 nM (antagonist)

====

# target system: UniProtKB P30969
# assay overview: Antagonist activity at rat GnRHR expressed in HEK293 cells assessed as inhibition of GnRH-induced luciferase response by reporter gene assay
# Assay type: functional, cell-based
Starred links: 1 amine or outer side, 2 acyl side, 3 side chain; linkers in the order of their positions; H or OH if unused. Non-standard residues stand in square brackets, D forms with d. Residues, ends and D or L forms follow the SMILES beside them. Phe(4-NH(5-NH2triazol-3-yl)) = Nc1nc(Nc2ccc(C[C@H](N)C(=O)O)cc2)n[nH]1; X1 = Nc1nc(Nc2ccc(C[C@@H](N[*:1])C(=O)[*:2])cc2)n[nH]1; dPhe(4-Cl) = N[C@H](Cc1ccc(Cl)cc1)C(=O)O; d2Nal = N[C@H](Cc1ccc2ccccc2c1)C(=O)O; Lys(iPr) = CC(C)NCCCC[C@H](N)C(=O)O; d3Pal = N[C@H](Cc1cccnc1)C(=O)O
Would you kindly list IC50 for each of these compounds?

Use the examples below as a reference point.
{"compound": "CS[C@H](NC(=O)[C@@H](Cc1cccnc1)NC(=O)[C@@H](Cc1ccc(Cl)cc1)NC(=O)[C@@H](Cc1ccc2ccccc2c1)NC(C)=O)C(=O)N[C@@H](Cc1ccc(NC(C)=O)cc1)C(=O)N[C@H](Cc1ccc(NC(C)=O)cc1)C(=O)N[C@@H](CC(C)C)C(=O)N[C@@H](CCCCNC(C)C)C(=O)N1CCC[C@H]1C(=O)N[C@H](C)C(N)=O", "IC50": "2.4 nM (antagonist)"}
{"compound": "CS[C@@H](NC(=O)[C@@H]1CCCN1C(=O)[C@H](CCCCNC(C)C)NC(=O)[C@H](CC(C)C)NC(=O)[C@@H](Cc1ccc(NC(C)=O)cc1)NC(=O)[C@H](Cc1ccc(NC(C)=O)cc1)NC(=O)[C@H](CO)NC(=O)[C@@H](Cc1cccnc1)NC(=O)[C@@H](Cc1ccc(Cl)cc1)NC(=O)[C@@H](Cc1ccc2ccccc2c1)NC(C)=O)C(N)=O", "IC50": "1.7 nM (antagonist)"}
{"compound": "CC(=O)Nc1ccc(C[C@H](NC(=O)[C@H](CO)NC(=O)[C@@H](Cc2cccnc2)NC(=O)[C@@H](Cc2ccc(Cl)cc2)NC(=O)[C@@H](Cc2ccc3ccccc3c2)NC(C)=O)C(=O)N[C@H](Cc2ccc(NC(C)=O)cc2)C(=O)N[C@@H](SC(C)C)C(=O)N[C@@H](CCCCNC(C)C)C(=O)N2CCC[C@H]2C(=O)N[C@H](C)C(N)=O)cc1", "IC50": "2.5 nM (antagonist)"}
{"compound": "CC(=O)N[C@H](Cc1ccc2ccccc2c1)C(=O)N[C@H](Cc1ccc(Cl)cc1)C(=O)N[C@H](Cc1cccnc1)C(=O)N[C@@H](CO)C(=O)N[C@@H](Cc1ccc(Nc2n[nH]c(N)n2)cc1)C(=O)N[C@H](Cc1ccc(Nc2n[nH]c(N)n2)cc1)C(=O)N[C@@H](CC(C)C)C(=O)N[C@@H](CCCCNC(C)C)C(=O)N1CCC[C@H]1C(=O)N[C@H](C)C(N)=O.CC(=O)O [PRAZARELIX ACETATE] (Ac-[d2Nal][dPhe(4-Cl)][d3Pal]S[Phe(4-NH(5-NH2triazol-3-yl))][X1]L[Lys(iPr)]P[dA]-NH2)", "IC50": "1.4 nM (antagonist)"}

Now for the compound whose IC50 we want.
IC50 for `CC(=O)Nc1ccc(C[C@H](NC(=O)[C@H](CO)NC(=O)[C@@H](Cc2cccnc2)NC(=O)[C@@H](Cc2ccc(Cl)cc2)NC(=O)[C@H](NC(C)=O)Sc2ccc3ccccc3c2)C(=O)N[C@H](Cc2ccc(NC(C)=O)cc2)C(=O)N[C@@H](CC(C)C)C(=O)N[C@@H](CCCCNC(C)C)C(=O)N2CCC[C@H]2C(=O)N[C@H](C)C(N)=O)cc1` ? 4.4 nM (antagonist)

====

# assay overview: Solubility in 5% mannitol
# Format: physicochemical
readout name: solubility (mg/mL)
One number for each entry, in mg/mL.

Here's what some known entries look like.
{"compound": "CC(=O)Nc1ccc(C[C@H](NC(=O)[C@H](CO)NC(=O)[C@@H](Cc2cccnc2)NC(=O)[C@@H](Cc2ccc(Cl)cc2)NC(=O)[C@@H](Cc2ccc3ccccc3c2)NC(C)=O)C(=O)N[C@H](Cc2ccc(NC(C)=O)cc2)C(=O)N[C@@H](CC(C)C)C(=O)N[C@@H](CCCCNC(C)C)C(=O)N2CCC[C@H]2C(=O)N[C@@H](C(N)=O)[S+](C)[O-])cc1 (stereo partly drawn)", "readout name": "solubility", "number": 50}
{"compound": "CC(=O)Nc1ccc(C[C@H](NC(=O)[C@H](CO)NC(=O)[C@@H](Cc2cccnc2)NC(=O)[C@@H](Cc2ccc(Cl)cc2)NC(=O)[C@@H](Cc2ccc3ccccc3c2)NC(C)=O)C(=O)N[C@H](Cc2ccc(NC(C)=O)cc2)C(=O)N[C@@H](C(=O)N[C@@H](CCCCNC(C)C)C(=O)N2CCC[C@H]2C(=O)N[C@H](C)C(N)=O)[S+]([O-])C(C)C)cc1 (stereo partly drawn)", "readout name": "solubility", "number": 50}

Please report the recorded solubility for CC(=O)Nc1ccc(C[C@H](NC(=O)[C@H](CO)NC(=O)[C@@H](CCC(N)=O)NC(=O)[C@@H](Cc2ccc(Cl)cc2)NC(=O)[C@@H](Cc2ccc3ccccc3c2)NC(C)=O)C(=O)N[C@H](Cc2ccc(NC(C)=O)cc2)C(=O)N[C@H](C(=O)N[C@@H](CCCCNC(C)C)C(=O)N2CCC[C@H]2C(=O)N[C@H](C)C(N)=O)[S+]([O-])C(C)C)cc1 (stereo partly drawn) . 50

====

# assay overview: Solubility in 5% mannitol
# Type: physicochemical
Starred links: 1 amine or outer side, 2 acyl side, 3 side chain; linkers in the order of their positions; H or OH if unused. Non-standard residues stand in square brackets, D forms with d. Residues, ends and D or L forms follow the SMILES beside them. Phe(4-NH(5-NH2triazol-3-yl)) = Nc1nc(Nc2ccc(C[C@H](N)C(=O)O)cc2)n[nH]1; X1 = Nc1nc(Nc2ccc(C[C@@H](N[*:1])C(=O)[*:2])cc2)n[nH]1; dPhe(4-Cl) = N[C@H](Cc1ccc(Cl)cc1)C(=O)O; d2Nal = N[C@H](Cc1ccc2ccccc2c1)C(=O)O; Lys(iPr) = CC(C)NCCCC[C@H](N)C(=O)O; d3Pal = N[C@H](Cc1cccnc1)C(=O)O
readout name: solubility (mg/mL)
Numbers only, in mg/mL.

{"compound": "CC(=O)Nc1ccc(C[C@H](NC(=O)[C@H](CO)NC(=O)[C@@H](Cc2cccnc2)NC(=O)[C@@H](Cc2ccc(Cl)cc2)NC(=O)[C@@H](Cc2ccc3ccccc3c2)NC(C)=O)C(=O)N[C@H](Cc2ccc(NC(C)=O)cc2)C(=O)N[C@H](SC(C)C)C(=O)N[C@@H](CCCCNC(C)C)C(=O)N2CCC[C@H]2C(=O)N[C@H](C)C(N)=O)cc1", "solubility, mg/mL": 50}
{"compound": "CC(=O)Nc1ccc(C[C@H](NC(=O)[C@H](CO)NC(=O)[C@@H](CCC(N)=O)NC(=O)[C@@H](Cc2ccc(Cl)cc2)NC(=O)[C@@H](Cc2ccc3ccccc3c2)NC(C)=O)C(=O)N[C@H](Cc2ccc(NC(C)=O)cc2)C(=O)N[C@H](SC(C)C)C(=O)N[C@@H](CCCCNC(C)C)C(=O)N2CCC[C@H]2C(=O)N[C@H](C)C(N)=O)cc1", "solubility, mg/mL": 50}

Now, please, on to the next compound.
Quick check: solubility of CC(=O)N[C@H](Cc1ccc2ccccc2c1)C(=O)N[C@H](Cc1ccc(Cl)cc1)C(=O)N[C@H](Cc1cccnc1)C(=O)N[C@@H](CO)C(=O)N[C@@H](Cc1ccc(Nc2n[nH]c(N)n2)cc1)C(=O)N[C@H](Cc1ccc(Nc2n[nH]c(N)n2)cc1)C(=O)N[C@@H](CC(C)C)C(=O)N[C@@H](CCCCNC(C)C)C(=O)N1CCC[C@H]1C(=O)N[C@H](C)C(N)=O.CC(=O)O [PRAZARELIX ACETATE] (Ac-[d2Nal][dPhe(4-Cl)][d3Pal]S[Phe(4-NH(5-NH2triazol-3-yl))][X1]L[Lys(iPr)]P[dA]-NH2) ? 50
